pKi: −log10 of the molar value. Counter-ions that a name gives are not always drawn.
The compounds below have reported pKi for h5-HT5A receptor (Homo sapiens, UniProt P47898).

Asked: Param item = Cc1ccc(NC(=N)NCc2ccccc2Oc2ccccc2)nc1 [Example 28, hydrochloride] ; retrieve measured pKi.
Given back: > 7.00

Asked: # get_value(readout='pKi', item= N#Cc1cccc(NC(=N)NCc2ccccc2OC(F)(F)F)n1 [Example 79, acetate] )
Given back: > 7.00

Asked: Given the entry COc1ccccc1CNC(=N)Nc1cccc(C#N)n1 [Example 52, acetate] , report its measured pKi.
Given back: > 7.00

Asked: Fill in: pKi of COc1ccccc1CNC(=N)Nc1ccc(C)cn1 [Example 6, acetate] is ___
Given back: > 7.00

Asked: # query: pKi of entry COc1cccc(OC)c1CNC(=N)Nc1cc(C)ccn1 [Example 30, acetate]
Given back: > 7.00

Asked: Requested field: pKi. Item: COc1ccccc1CNC(=N)Nc1cc(C#N)ccn1 [Example 66, acetate]
Given back: > 7.00

Asked: Need pKi, item COc1cccc(Cl)c1CNC(=N)Nc1ncccc1C [Example 31]
Given back: > 7.00

Asked: GET /values?readout=pKi&item= COc1ccccc1CNC(=N)Nc1cccnc1 [Example 34, acetate]
Given back: > 5.00

Asked: Reported pKi, compound COc1cccc(OC)c1CNC(=N)Nc1cc(-c2ccccc2)ccn1 [Example 56, diacetate] : ____
Given back: > 7.00

###

The compounds below have reported Ki for h5-HT5A receptor (Homo sapiens, UniProt P47898).

Asked: Which value of Ki has been reported for COc1cccc(C)c1CNC(=N)Nc1ccc(C#N)cn1 [Example 97, acetate] in the records?
Given back: < 100 nM

Asked: Look at this compound and give its reported Ki. COc1cccc(OC)c1CNC(=N)Nc1cnc2ccccc2c1 [Example 17, acetate]
Given back: < 100 nM

Asked: Entry under review: CCOc1ccccc1CNC(=N)Nc1cccc(C#N)n1 [Example 81, acetate] . Reported Ki?
Given back: < 100 nM

Asked: Looking for the measured Ki of COc1ccccc1CNC(=N)Nc1cc(-c2ccccc2)ccn1 [Example 58, acetate] , can you help?
Given back: < 100 nM

Asked: So what does the record say about Ki for COc1cccc(OC)c1CNC(=N)Nc1ncccc1-c1ccc(F)cc1 [Example 61, acetate] ?
Given back: < 300 nM

Asked: Entry CCOc1ccccc1CNC(=N)Nc1cccc(Br)n1 [Example 75, acetate] has what Ki?
Given back: < 100 nM

Asked: Could you tell me which Ki is on file for COc1ccccc1CNC(=N)Nc1ccc(Cc2ccccc2)cn1 [Example 67, acetate] ?
Given back: < 100 nM

Asked: Returns the measured Ki for the input compound. Input: N#Cc1cccc(NC(=N)NCc2c(Cl)cccc2Oc2ccccc2)n1 [Example 82, acetate]
Given back: < 100 nM

Asked: If you can, please state the reported Ki value of COc1cccc(OC)c1CNC(=N)Nc1ccc(-c2ccc(F)cc2)cn1 [Example 84, acetate] .
Given back: < 100 nM

Asked: Quick one: Ki for Cc1ccc(NC(=N)NCc2ccccc2OC(F)(F)F)nc1 ?
Given back: < 100 nM

Asked: Name the reported Ki value associated with the compound COc1cccc(OC)c1CNC(=N)Nc1ncccc1C#N [Example 65, acetate]
Given back: < 10000 nM

Asked: Item under review: COc1cccc(OC)c1CNC(=N)Nc1ncccn1 . Reported Ki?
Given back: < 100 nM

Asked: Given COc1ccccc1CNC(=N)Nc1ccc[n+](C)c1 [Example 35, acetate] , state its recorded Ki.
Given back: < 10000 nM

Asked: Query: Ki; subject: COc1ccccc1CNC(=N)Nc1cc(Br)ccn1
Given back: < 100 nM

Asked: Which Ki reading was recorded for the compound N=C(NCc1ccccc1OC(F)(F)F)Nc1cccc(Br)n1 ?
Given back: < 100 nM

Asked: Dear colleague, I am looking for the recorded Ki of the following compound: COc1cccc(Cl)c1CNC(=N)Nc1cccc(C#N)n1 [Example 78, acetate]
Given back: < 100 nM

Asked: Reported Ki for COc1cccc(Cl)c1CNC(=N)Nc1ccc(C#N)cn1 [Example 95, acetate] : what is it?
Given back: < 100 nM

Asked: Fill in: Ki of COc1cccc(OC)c1CNC(=N)Nc1cccc(-c2ccccc2)n1 [Example 53, acetate] is ___
Given back: < 100 nM

Asked: // lookup Ki for COc1cccc(OC)c1CNC(=N)Nc1cccc(C#N)n1 [Example 55, acetate]
Given back: < 100 nM

Asked: Which value of Ki has been reported for COc1cccc(OC)c1CNC(=N)Nc1ccc(Cc2ccccc2)cn1 [Example 68, acetate] in the records?
Given back: < 100 nM

Asked: I'd like to know its Ki. The compound in question is COc1ccccc1CNC(=N)Nc1ncccn1 [Example 36, acetate]
Given back: < 10000 nM

Asked: Find the recorded Ki belonging to COc1cccc(F)c1CNC(=N)Nc1ccc(C#N)cn1 [Example 96, acetate] and report it.
Given back: < 100 nM

Asked: What value of Ki has been recorded for this entry: COc1cccc(Cl)c1CNC(=N)Nc1ccc(C)cn1 [Example 18, acetate]
Given back: < 100 nM

Asked: Fill in the blank: the reported Ki of COc1cccc(F)c1CNC(=N)Nc1ccc(C)cn1 [Example 20, acetate] is ____.
Given back: < 100 nM

Asked: Recorded Ki of COc1ccccc1CNC(=N)Nc1cc(-c2ccc(F)cc2)ccn1 [Example 59, acetate] , please.
Given back: < 300 nM

Asked: Which measured Ki value corresponds to COc1ccccc1CNC(=N)Nc1ncccc1Br [Example 47, acetate] ?
Given back: < 10000 nM

Asked: What value of Ki has been recorded for this entry: COc1cccc(OC)c1CNC(=N)Nc1ccccn1 [Example 5, acetate]
Given back: < 100 nM

Asked: For the compound COc1cccc(OC)c1CNC(=N)Nc1nccc(-c2cccs2)n1 [Example 15, acetate] , what Ki is on record?
Given back: < 100 nM

Asked: What value of Ki has been recorded for this entry: COc1cccc(OC)c1CNC(=N)Nc1ncccc1-c1ccccc1 [Example 60, acetate]
Given back: < 300 nM

Asked: So what does the record say about Ki for CCc1ccccc1CNC(=N)Nc1ccc(C)cn1 ?
Given back: < 300 nM

Asked: Would you mind telling me what Ki value was observed for Cc1ccc(NC(=N)NCc2ccccc2OC(C)C)nc1 [Example 23, acetate] ?
Given back: < 100 nM

Asked: // query Ki value for entry COc1cccc(Cl)c1CNC(=N)Nc1ccc(I)cn1 [Example 91, acetate]
Given back: < 100 nM

Asked: Please look up its Ki: COc1ccccc1CNC(=N)Nc1ccc(-c2ccc(C(F)(F)F)cc2)cn1 [Example 89, acetate]
Given back: < 300 nM

Asked: Given COc1cccc(OC)c1CNC(=N)Nc1ncccc1C [Example 13, acetate] , state its recorded Ki.
Given back: < 100 nM

Asked: Ki for CC(C)Oc1ccccc1CNC(=N)Nc1cccc(C#N)n1 [Example 80, acetate] ?
Given back: < 100 nM

Asked: Tell me the measured Ki of COc1cccc(OC)c1CNC(=N)Nc1cc2ccccc2cn1 , please.
Given back: < 100 nM

Asked: May I ask what Ki has been recorded for COc1ccccc1CNC(=N)Nc1cccc(-c2ccccc2)n1 [Example 51, acetate] ?
Given back: < 100 nM

Asked: For COc1ccccc1CNC(=N)Nc1ccc2ccccc2n1 [Example 40, acetate] , what is its reported Ki?
Given back: < 100 nM

###

pKi: −log10 of the molar value.
Below are molecules with their pKi as measured on UniProtKB P47898.

Asked: What value of pKi has been recorded for this entry: COc1cccc(OC)c1CNC(=N)Nc1cc(Br)ccn1
Given back: > 7.00

Asked: Consider the molecule CCOc1ccccc1CNC(=N)Nc1ccc(C)cn1 [Example 22, acetate] and give its measured pKi.
Given back: > 7.00

Asked: Which value of pKi has been reported for COc1ccccc1CNC(=N)Nc1ccccn1 [Example 1, acetate] in the records?
Given back: > 7.00

Asked: Item COc1cccc(C)c1CNC(=N)Nc1cccc(C#N)n1 [Example 76, acetate] has what recorded pKi?
Given back: > 7.00

Asked: I would be grateful if you could share the reported pKi for COc1ccccc1CNC(=N)Nc1cccc(-c2ccc(OC(F)(F)F)cc2)n1 .
Given back: > 5.00

Asked: Which pKi value belongs to COc1cccc(F)c1CNC(=N)Nc1cccc(Br)n1 ?
Given back: > 7.00

Asked: Consider the molecule COc1cccc(OC)c1CNC(=N)Nc1ccc(C#N)cn1 [Example 85, acetate] and give its measured pKi.
Given back: > 7.00

Asked: Fill blank: measured pKi of the molecule COc1cccc(OC)c1CNC(=N)Nc1cc(C#N)ccn1 [Example 64, acetate] is ____.
Given back: > 7.00

Asked: Give its pKi value. Item: COc1ccccc1CNC(=N)Nc1ncccc1C [Example 12, acetate]
Given back: > 7.00

Asked: Can you share its pKi? I mean this molecule: COc1ccccc1CNC(=N)Nc1cccc(Cc2ccccc2)n1 [Example 69, acetate]
Given back: > 7.00

Asked: Quick one: pKi for COc1cccc(F)c1CNC(=N)Nc1ccc(I)cn1 [Example 92, acetate] ?
Given back: > 7.00

Asked: If you can, please state the reported pKi value of COc1ccccc1CNC(=N)Nc1nccc(-c2cccs2)n1 [Example 14, acetate] .
Given back: > 5.00

Asked: # pKi lookup, item COc1cccc(OC)c1CNC(=N)Nc1ncc(C(F)(F)F)cc1Cl [Example 11, acetate]
Given back: > 5.00

Asked: // pKi lookup, key: COc1cccc(OC)c1CNC(=N)Nc1cc(-c2ccc(F)cc2)ccn1 [Example 57, acetate]
Given back: > 7.00

Asked: Reported pKi, molecule COc1cccc(OC)c1CNC(=N)Nc1ccc(-c2ccccc2)cn1 [Example 83, acetate] : ____
Given back: > 7.00

Data provenance is patent US9296697B2.
